# System: HCV replicon 3a WT
# experimentSummary: Cell-based HCV replicon assay, 3a WT
# runParameters: Hepatitis C virus, 72 h; replicon cells, harvested day 3, replicon RNA by real time PCR (Taqman)
pEC50: −log10 of the molar value.
Here, each record is paired with measured pEC50 data.

| compound | pEC50 |
| --- | --- |
| COC(=O)N[C@H](C(=O)N1C[C@H](F)C[C@H]1c1ncc(-c2ccc3c(c2)Oc2ccc(-c4cnc([C@@H]5C[C@@H](F)CN5C(=O)[C@@H](NC(=O)OC)C(C)C)[nH]4)c4ccn-3c24)[nH]1)C(C)C | 8.82 |
| COC(=O)N[C@H](C(=O)N1CCC[C@H]1c1ncc(-c2ccc3c(c2)Oc2ccc(-c4cnc([C@@H]5CCCN5C(=O)[C@@H](NC(=O)OC)C(C)(C)C)[nH]4)c4ccn-3c24)[nH]1)C(C)(C)C | 8.90 |
| COC(=O)N[C@H](C(=O)N1CCC[C@H]1c1ncc(-c2ccc3c(c2)Oc2ccc(-c4cnc([C@@H]5CCCN5C(=O)[C@@H](NC(=O)OC)C(C)C)[nH]4)c4occ-3c24)[nH]1)C(C)C | 9.79 |
| COC(=O)N[C@H](C(=O)N1CC(F)(F)C[C@H]1c1ncc(-c2ccc3c(c2)Oc2ccc(-c4cnc([C@@H]5CC(F)(F)CN5C(=O)[C@@H](NC(=O)OC)C(C)C)[nH]4)c4ccn-3c24)[nH]1)C(C)C | 9.51 |
| COC(=O)N[C@H](C(=O)N1CCC[C@H]1c1ncc(-c2cc3c4c(c2)Oc2ccc(-c5cnc([C@@H]6CCCN6C(=O)[C@@H](NC(=O)OC)C(C)C)[nH]5)cc2C4CO3)[nH]1)C(C)C (some centres unmarked) | 9.28 |
